target: Human His-tagged RBP4 (residues 19-201), soluble (human, UniProt P02753 19-201); assay: SPR (Biacore T200), single-cycle kinetics, RBP4 immobilised on a CM5 chip, RS3 injected at 6.25-100 nM, with 5 µM A1120; steady-state analysis; one representative experiment of four
QUANTITY: Kd (nM)
Express your answer in nM, writing the number without its unit.

Find the recorded Kd belonging to RS3, rcSso7d-based RBP4 binding interaction partner, soluble protein (designed binder, Expressed in E. coli as His6-SUMO fusion; Monomeric by SEC) ATVKLTYQGEEKQVDISKIKRVARYGQNIYFSYDEGGGAYDYGAVSEKDAPKELLQMLEKQ and report it.
11

This collection of values is drawn from patent US11844813.
